The measurements presented in this section are drawn from ChEMBL document CHEMBL2177036.

# ASSAY: Intrinsic clearance in human hepatocytes assessed per 10^6 cells
# Type: ADME, cell-based, Hepatocyte
# TEST_SETTINGS: read-out: CLH
RESULT_TYPE: hepatocyte CLint (µL/min/1e6 cells)
The answer is to be given in µL/min/1e6 cells; state only the numeric part.

Query: Item under review: `CN1C(=N)N[C@@]2(c3cc(-c4cccc(C#N)c4)cs3)CN(c3ncc(F)cn3)C[C@H]2C1=O` . Reported hepatocyte CLint?
Response: 2

----------
# ASSAY: Intrinsic clearance in cynomolgus monkey hepatocytes assessed per 10^6 cells
# Type: ADME, cell-based, Macaca fascicularis, Hepatocyte
# TEST_SETTINGS: read-out: CLH
RESULT_TYPE: hepatocyte CLint (µL/min/1e6 cells)
The answer is to be given in µL/min/1e6 cells; state only the numeric part.

Query: Item under review: `CN1C(=N)N[C@@]2(c3cc(-c4cccc(C#N)c4)cs3)CN(c3ncc(F)cn3)C[C@H]2C1=O` . Reported hepatocyte CLint?
Response: 5.7

----------
# ASSAY: Drug uptake in rat brain at 10 mg/kg, po at 6 hrs
# Type: ADME, organism-based
# Parameters: dose 10 mg/kg, route oral
# TEST_SETTINGS: read-out: Drug uptake
RESULT_TYPE: concentration at 6 h (nM)
The answer is to be given in nM; state only the numeric part.

A selection of reference data follows.
QUERY_SMILES: Cc1cnc(N2C[C@H]3C(=O)N(C)C(=N)N[C@@]3(c3cc(-c4cccc(C#N)c4)cs3)C2)nc1
RECORDED_MEASUREMENT: 232
//
QUERY_SMILES: CN1C(=O)[C@@H]2CN(c3ncccn3)C[C@]2(c2cc(-c3cccc(C#N)c3)cs2)N=C1N
RECORDED_MEASUREMENT: 58
//
QUERY_SMILES: CN1C(=N)N[C@@]2(c3cc(-c4cccc(C#N)c4)cs3)CN(c3ncc(Cl)cn3)C[C@H]2C1=O
RECORDED_MEASUREMENT: 965

--- query ---
Query: Item under review: `CN1C(=N)N[C@@]2(c3cc(-c4cccc(C#N)c4)cs3)CN(c3ncc(F)cn3)C[C@H]2C1=O` . Reported concentration at 6 h?
Response: 463

----------
# ASSAY: Apparent permeability across human Caco2 cells
# Format: ADME, cell-based
# TEST_SETTINGS: Caco-2
RESULT_TYPE: Papp (×10⁻⁶ cm/s)
The answer is to be given in ×10⁻⁶ cm/s; state only the numeric part.

Query: Item under review: `CN1C(=N)N[C@@]2(c3cc(-c4cccc(C#N)c4)cs3)CN(c3ncc(F)cn3)C[C@H]2C1=O` . Reported Papp?
Response: 15.1

----------
Each item that follows carries a reported AUC(0-t) at 6 h.
# ASSAY: AUC (0 to 6 hrs) in rat at 10 mg/kg po
# Assay type: ADME, organism-based
# Parameters: time < 6 hr, dose 10 mg/kg, route oral
# TEST_SETTINGS: plasma
The answer is to be given in µM·h; state only the numeric part.

A selection of reference data follows.
QUERY_SMILES: CC#Cc1cncc(-c2csc([C@]34CN(C(=O)c5cccc(F)c5)C[C@H]3C(=O)N(C)C(N)=N4)c2)c1
AUC(0-t) at 6 h, µM·h: 0.3

QUERY_SMILES: CN1C(=O)[C@@H]2CN(c3ncccn3)C[C@]2(c2cc(-c3cccc(C#N)c3)cs2)N=C1N
AUC(0-t) at 6 h, µM·h: 2

QUERY_SMILES: Cc1cnc(N2C[C@H]3C(=O)N(C)C(=N)N[C@@]3(c3cc(-c4cccc(C#N)c4)cs3)C2)nc1
AUC(0-t) at 6 h, µM·h: 111

Query: Item under review: `CN1C(=O)[C@@H]2CN(C(=O)c3ccccc3)C[C@]2(c2cc(-c3cccc(C#N)c3)cs2)N=C1N` . Reported AUC(0-t) at 6 h?
Response: 0.024

Query: Item under review: `CC#Cc1cncc(-c2csc([C@]34CN(c5cccc(OC(C)C)c5)C[C@H]3C(=O)N(C)C(N)=N4)c2)c1` . Reported AUC(0-t) at 6 h?
Response: 3.7

Query: Item under review: `CN1C(=N)N[C@@]2(c3cc(-c4cccc(C#N)c4)cs3)CN(c3ncc(F)cn3)C[C@H]2C1=O` . Reported AUC(0-t) at 6 h?
Response: 31

Query: Item under review: `CN1C(=N)N[C@@]2(c3cc(-c4ccc(F)c(C#N)c4)cs3)CN(C(=O)c3cccc(F)c3)C[C@H]2C1=O` . Reported AUC(0-t) at 6 h?
Response: 0.3

Query: Item under review: `CN1C(=N)N[C@@]2(c3cc(-c4cccc(C#N)c4)cs3)CN(c3ncc(Cl)cn3)C[C@H]2C1=O` . Reported AUC(0-t) at 6 h?
Response: 90
